Form field: ΔTm at 20 µM (one value per entry).
biological target: ERR gamma protein (Homo sapiens, UniProt P62508); experiment: Protein thermal shift assay; type: binding; settings: compound at 20 μM; ERR gamma protein 0.1 mg/mL, SYPRO-Orange; read-out: T.S. (thermal shift) range

chemical.string: O=C(Nc1ccc(O)cc1)c1cc(-c2ccc(O)cc2)[nH]n1
ΔTm at 20 µM: 2 to 4 °C
//
chemical.string: CC(C)c1cccc(-c2ccc(C(=O)Nc3cccnc3)s2)c1
ΔTm at 20 µM: 0 to 2 °C
//
chemical.string: COc1cc(NC(=O)c2ccc(-c3ccc(Cl)cc3)s2)cc(OC)c1
ΔTm at 20 µM: 0 to 2 °C
//
chemical.string: CC(C)c1ccc(-c2ccc(C(=O)Nc3cccnc3)s2)cc1
ΔTm at 20 µM: 0 to 2 °C
//
chemical.string: Cc1ccc(NC(=O)c2cc(-c3cccc(O)c3)[nH]n2)cc1
ΔTm at 20 µM: 0 to 2 °C

---

Target: ERRγ (Homo sapiens)
Construct: Data for selected compounds in the full-length
Sequence (P62508 1-458): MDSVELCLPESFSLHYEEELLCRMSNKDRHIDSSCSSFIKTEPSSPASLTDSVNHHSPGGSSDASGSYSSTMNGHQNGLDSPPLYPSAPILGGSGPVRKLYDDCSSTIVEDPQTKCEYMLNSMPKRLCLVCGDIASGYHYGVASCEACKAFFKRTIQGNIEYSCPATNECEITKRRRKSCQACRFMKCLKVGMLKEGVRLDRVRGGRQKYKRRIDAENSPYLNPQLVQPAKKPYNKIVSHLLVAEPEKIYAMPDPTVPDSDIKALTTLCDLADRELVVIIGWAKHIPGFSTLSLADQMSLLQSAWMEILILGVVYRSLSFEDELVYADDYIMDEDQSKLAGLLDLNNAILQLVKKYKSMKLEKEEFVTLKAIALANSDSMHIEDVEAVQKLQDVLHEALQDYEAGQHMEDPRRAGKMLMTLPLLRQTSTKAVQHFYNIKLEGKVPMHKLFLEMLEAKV
Test: Full-length ERRγ luciferase reporter assay (ERRE reporter, HEK293 cells)
Details: HEK293 cells transfected with ERRE reporter and pcDNA3.1 ERRγ, 24 hours treatment
reported.property: EC50 (nM)

compound: O=C(Nc1ccc(O)cc1)c1ccc(-c2ccc(C(F)(F)F)cc2)s1
measurement.target: ERRγ (Homo sapiens)
reported.property: EC50
bound.type: =
readout.value: 2680

compound: O=C(Nc1cccc(F)c1)c1ccc(-c2ccc(O)cc2)o1
measurement.target: ERRγ (Homo sapiens)
reported.property: EC50
bound.type: =
readout.value: 3400

compound: O=C(Nc1cccc(F)c1)c1ccc(-c2ccc(B(O)O)cc2)s1
measurement.target: ERRγ (Homo sapiens)
reported.property: EC50
bound.type: =
readout.value: 89

compound: O=C(Nc1cccc(B(O)O)c1)c1ccc(-c2cccc(F)c2)s1
measurement.target: ERRγ (Homo sapiens)
reported.property: EC50
bound.type: =
readout.value: 563

compound: O=C(Nc1cccc(O)c1)c1ccc(-c2ccsc2)s1
measurement.target: ERRγ (Homo sapiens)
reported.property: EC50
bound.type: =
readout.value: 1010

compound: O=C(NC1CCC(O)CC1)c1ccc(-c2ccccc2)o1 (centres unmarked)
measurement.target: ERRγ (Homo sapiens)
reported.property: EC50
bound.type: =
readout.value: 3500

compound: O=C(Nc1ccc2ccccc2c1)c1cc(-c2ccc(O)cc2)[nH]n1
measurement.target: ERRγ (Homo sapiens)
reported.property: EC50
bound.type: =
readout.value: 734

compound: O=C(Nc1ccc(Cl)cc1)c1cc(-c2cccc(O)c2)[nH]n1
measurement.target: ERRγ (Homo sapiens)
reported.property: EC50
bound.type: >
readout.value: 25000
